- Test: folding stability dG unfold (combined trypsin and chymotrypsin); higher = more stable
Reported folding stability dG unfold values for the following sequences.
The answer should read as a number with its unit following.

# annotated cases, reported folding stability dG unfold shown
• SAGGSAGGSAGMETIRLTFTVPGPDDRYYRVSVEARINPPTGEIEILRVEITPLDNPDAISAGGSAGGSAGG [r11_777_TrMRF] = 3.69 kcal/mol
• SAGGESTPEIEPVATLELPTPDGRPITVEVYRLKDGTVRVVVRNPNPPETITLTIPAKEGETIPIFLSAGGS [r16_566_TrMRF] = 2.11 kcal/mol

Ask | Using known records, supply folding stability dG unfold for SAGGSAGGSAGGGMRLVEVPPGDPAAVEARLAELGPDARLLEVRRLPEEGRWVVLVSEESAGGSAGGSAGGS [r10_23_JUSTAS]
Reply | -0.258 kcal/mol

Ask | Using known records, supply folding stability dG unfold for STTEVEVTPLPGNSTLVTTTTTTPEFDPANGTIRYTSETTTTTITYTPGTTEPTTTTTTTTTTTTIPATTSA [r9_140_JUSTAS]
Reply | 0.814 kcal/mol

Ask | Using known records, supply folding stability dG unfold for SAGGSAGGSAGDPVLTVTLLDDNHPVTLTYHPGEKTVTVSVYPLKSGKVLGTVTVPASELSAGGSAGGSAGG [r11_231_TrMRF]
Reply | -0.0506 kcal/mol

Ask | Using known records, supply folding stability dG unfold for SAGMMEIVEVKEVDGRLELKIKDKETGEEFTITVERKEDGELKVTIEMSDEAAERLRELFPEIDRLEIKSAG [r5_933_TrROS_Hall]
Reply | 2.93 kcal/mol

Ask | Using known records, supply folding stability dG unfold for SAGGSAGGSAGGSGVSITTTLPVKTTVLQPFNTFENKLLLKEVEKTILTTVTLTLPPLLSAGGSAGGSAGGS [r4_326_JUSTAS]
Reply | 0.148 kcal/mol

----------
- Test: folding stability dG unfold from trypsin proteolysis; higher = more stable
I would appreciate it if you labelled entries YES when folding stability dG unfold is 2 kcal/mol or higher, otherwise NO.

These solved cases illustrate the format of a correct answer.
* SAGGSAGGSAMKVALVERPDGSPFLLVFDPDRPGVALLRPLDTDEVEVLPSELLKNLKITASAGGSAGGSAG [r3_451_TrMRF] | NO
* SAGGSPDEAVPLPVPAKITLPGGAEFTVEEAVVLPNGEVLVKATLISPYPDPREAPFVVPLELLDISSAGGS [r16_498_TrMRF] | NO
* SAGGSAGGSKIKPGEKVEIKLKIKVKDKNGKEKEIELTFSKDMTVEEIKKLLKELEKKGFEIESAGGSAGGS [r20_27_TrROS_Hall] | NO

Ask | Entry SAGGSAGGSAGNYMVRLEIEMPENGRKVEWMVPEDDPEEILEKFPWLKEHGMEVKIEVFPSAGGSAGGSAGG [r17_176_TrROS] : is its folding stability dG unfold no less than 2 kcal/mol?
Reply | NO

Ask | Entry SMTITFKTEEEAKKAAEELLKELEKKLKPGQKIKITVTTEDGKTITIEIEIKPPKKEVEVDEETGELKEKSA [r9_596_TrROS_Hall] : is its folding stability dG unfold no less than 2 kcal/mol?
Reply | NO

Ask | Entry SAGGMNMKPIKKETFTLPDENGNEVKIEIYKLEDGSYIIKITYPSGKTETFIVPDEETAKNLKIEIKPSAGG [r13_109_TrMRF] : is its folding stability dG unfold no less than 2 kcal/mol?
Reply | NO

Ask | Entry SEPPPKIKIKEVEYNPDDGYLTIPVTHPNGPKMRVKFRPPDGKTQEIPPNSPTITIPLPPNMRLTEIEVDSA [r9_113_TrROS] : is its folding stability dG unfold no less than 2 kcal/mol?
Reply | YES

Ask | Entry SAGGSAGGSAPPYKYVQIELWIPGPIEEIADELQDNFGIRSIDVKRDPENGWVRADIYFQFPSAGGSAGGSA [r18_275_TrROS] : is its folding stability dG unfold no less than 2 kcal/mol?
Reply | YES

----------
- Test: folding stability dG unfold from chymotrypsin proteolysis; higher = more stable
Reported folding stability dG unfold values for the following sequences.
The answer should read as a number with its unit following.

# annotated cases, reported folding stability dG unfold shown
• SAGGSAGGMEVVELTVDELRALLPPGAVLLVYNRKTRKLYEIPVEELEALLKPGDKVRVVVLPPSAGGSAGG [r6_893_TrROS_Hall] = 4.39 kcal/mol
• SAGGSAGGSMTAEEIAEKFPGLPPEQIKNIPIERHPDGYMTVNIEHRGPNGNKQEQQVEIPVDSAGGSAGGS [r12_1050_TrROS] = 0.505 kcal/mol
• SAGPKNREIKVRIQFNGNWVEYKMPDNDLKELVKNGGLQIAGVDPEKDEIMIQIPVPPPKPDPEDGKPKSAG [r5_868_TrROS] = 1.23 kcal/mol
• SAGGPTIRLLVLPNKAEEVAEAIKKEFGAEVKILRVEPYPLPGPDGKVLKPVYLVEIEVKVKDPRLPLSAGG [r13_943_TrMRF] = 1.3 kcal/mol
• SAGGSAGGSAGGEKTIVISEEEAEKLAKELEKKGLTVERKPDGTLKVNGKEIRIIVVEPSAGGSAGGSAGGS [r10_930_TrROS_Hall] = 0.858 kcal/mol
• SAGGSANAEEIADWLQDRGFKEVEIEKDPENGNVTVEIRNPGGYEWELTINPKNPKITEIEPRPKKSAGGSA [r15_648_TrROS] = 0.0797 kcal/mol

Attention now shifts to the item below.
Ask | Using known records, supply folding stability dG unfold for SAGGSAGGSAGMTLIYKDPETGKYYIVDFEESGPERVFEVDSLDEAEEIAEKLGRKLDPLSAGGSAGGSAGG [r11_1049_TrMRF]
Reply | 2.59 kcal/mol

----------
- Test: folding stability dG unfold from trypsin proteolysis; higher = more stable
Outcome Measure: folding stability dG unfold (kcal/mol)
The reply should contain only the number, in kcal/mol.

• SAGGSAGGSAPELVKKIAEELPVPVKVEPFGNVLLVELELPNEDGEPVKLRLAIPIPPELLGSAGGSAGGSA [r18_27_TrMRF] = -0.195
• SMVIEIPDGTPLEEIIKKVKEAKEKGEPMEVVVTVPNDESVIQALKEAGFEVEVEKDEVKNVTLYKVKLPSA [r9_759_JUSTAS] = 2.7
• SAGGLRVHPNSLYIWIPPGGNFDDFVKEIAQELQKKGKPMEIKVEPFPDGWYWIRIKVDGKDIEIWMSAGGS [r16_771_TrROS] = 2.02

Ask | Using known records, supply folding stability dG unfold for SAGMVITVPSDVPVEELLELARELARELGGGRVEVRTHPDNPEIVTATIDIPGTGKRILIINAPPGVLASAG [r5_912_TrMRF]
Reply | 2.66

Ask | Using known records, supply folding stability dG unfold for SAGMPPTTVEVKVTVVKTPEGYEVVAEVVTPDRTETLTIPPHLGLEEAKARLEAVLAERGLTLVDWTLESAG [r5_305_JUSTAS]
Reply | 2.71

Ask | Using known records, supply folding stability dG unfold for SAGGSAGGSAGGEDLKINIKISEITFSPDGWITMSMRGGNGRWFQHTIKVKIKLPPGDPSAGGSAGGSAGGS [r10_281_TrROS]
Reply | 2.77

Ask | Using known records, supply folding stability dG unfold for SAMTLTVPPSLSATDAAGNAIPPSLSIEVEKVTPLPETGKVVAEVKITDPETGETTTRPLTITLPPGEASAG [r14_258_JUSTAS]
Reply | 0.827

----------
Reported folding stability dG unfold values for the following sequences.
- Test: folding stability dG unfold from trypsin proteolysis; higher = more stable
The reply should contain only the number, in kcal/mol.

Ask | Using known records, supply folding stability dG unfold for SAGGSAGGSGTSTKINILLPVKPGETVKLKVEVNLNSKKVLFYVDVKKNPVGNYLSATFTVTGSAGGSAGGS [r12_136_TrMRF]
Reply | 2.75

Ask | Using known records, supply folding stability dG unfold for SAGGSAMEKLKEIPGIERIEVKEDGKIIIHVKMSEEERKKLAEALRKEGKVKIEVVPVEVEEEEEESAGGSA [r15_554_TrROS_Hall]
Reply | 2.83

Ask | Using known records, supply folding stability dG unfold for SAGGSAGGSGKPLLLVRLKIRNKETGEEETVVLEADSLDEALARLPPGAEIVSIEVVRLDLPPSAGGSAGGS [r12_208_TrROS_Hall]
Reply | 4.34

Ask | Using known records, supply folding stability dG unfold for SAGGSSITVPYPEGYEITVEVFPNYATITTKTPSSTLTKTVSFSTPVTVKTPSDKPVTINVPSPEVSAGGSA [r2_57_JUSTAS]
Reply | 0.303

----------
- Test: folding stability dG unfold from chymotrypsin proteolysis; higher = more stable
Outcome Measure: folding stability dG unfold (kcal/mol)
The reply should contain only the number, in kcal/mol.

* SAGGSAKPVIVKIHFPNMKPEKILELAKEFGAVPLKMDPNKGVAIVLATEEKVEEIAAKGNFKIEASAGGSA [r15_731_TrMRF] | 0.205
* SAGGSKTIEVEIKVPPGMTPEEVAKKLAEELKKAGIEVKVVKVEYDEEKGTVRITLDDGSEVELKVSAGGSA [r2_242_TrROS_Hall] | 1.98
* SAGGPPRTVTVFVNDPDGNTYTFTFSDSVPLSTVVANVSKTLGVPLTVDSVTVHPDGTVTITVTNPGSAGGS [r8_285_TrMRF] | 5

Attention now shifts to the item below.
Ask | Using known records, supply folding stability dG unfold for SPGMEPIREWELKLPDPDGEDKDLEVEMYRMPEGNYYVDISIPNGKKIPFPMPPDEPITPDDIRNFIKKFSA [r9_616_TrROS]
Reply | 0.613
